% signal for assorted compounds
# Target desc: Cyclophilin A (Homo sapiens, UniProt P62937)
# Construct: made in house
# Sequence (P62937 whole entry, species assumed): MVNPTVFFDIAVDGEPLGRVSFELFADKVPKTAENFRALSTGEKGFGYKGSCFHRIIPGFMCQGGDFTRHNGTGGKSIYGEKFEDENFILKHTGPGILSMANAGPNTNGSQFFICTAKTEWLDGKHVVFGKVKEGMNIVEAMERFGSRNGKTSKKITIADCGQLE
# Procedure details: AlphaLISA inhibition of binding of biotinylated Cyclosporin A to FLAG tagged Cyclophilin A
# Condition summary: AlphaLISA signal; test concentration not given
Where a SMILES comes first, the peptide text is derived from it. [ ]: non-standard residue; d: D form. MeBmt = C/C=C/C[C@@H](C)[C@@H](O)[C@H](NC)C(=O)O; NMeL = CN[C@@H](CC(C)C)C(=O)O; NMeNle = CCCC[C@H](NC)C(=O)O; Tle = CC(C)(C)[C@H](N)C(=O)O; NMeV = CN[C@H](C(=O)O)C(C)C; NMeA = CN[C@@H](C)C(=O)O; dNMeA = CN[C@H](C)C(=O)O; Abu = CC[C@H](N)C(=O)O; Sar = CNCC(=O)O
Property name: % signal (%)

C/C=C/C[C@@H](C)[C@@H](O)[C@H]1C(=O)N[C@@H](CC)C(=O)N(C)CC(=O)N(C)[C@@H](C)C(=O)N[C@@H](C(C)C)C(=O)N(C)[C@@H](CC(C)C)C(=O)N[C@@H](CC)C(=O)N[C@H](C)C(=O)N(C)[C@@H](CC(C)C)C(=O)N(C)[C@@H](CC(C)C)C(=O)N(C)[C@@H](C(C)C)C(=O)N1C [Compound C94] (cyclo([Abu][Sar][NMeA]V[NMeL][Abu][dA][NMeL][NMeL][NMeV][MeBmt])) | 3.71
C/C=C/C[C@@H](C)[C@@H](O)[C@H]1C(=O)N[C@@H](CC)C(=O)N(C)CC(=O)N(C)[C@@H](C)C(=O)N[C@@H](CC(C)C)C(=O)N(C)[C@@H](C)C(=O)N[C@@H](C)C(=O)N[C@H](C)C(=O)N(C)[C@@H](CC(C)C)C(=O)N(C)[C@@H](CC(C)C)C(=O)N(C)[C@@H](C(C)C)C(=O)N1C [Compound C10] (cyclo([MeBmt][Abu][Sar][NMeA]L[NMeA]A[dA][NMeL][NMeL][NMeV])) | 0.56
C/C=C/C[C@@H](C)[C@@H](O)[C@H]1C(=O)N[C@@H](CC)C(=O)N(C)CC(=O)N(C)[C@H](C)C(=O)N[C@@H](C(C)C)C(=O)N(C)[C@@H](C)C(=O)N[C@@H](CC(C)C)C(=O)N[C@H](C)C(=O)N(C)[C@@H](CC(C)C)C(=O)N(C)[C@@H](CC(C)C)C(=O)N(C)[C@@H](C(C)C)C(=O)N1C [Compound C83] (cyclo([MeBmt][Abu][Sar][dNMeA]V[NMeA]L[dA][NMeL][NMeL][NMeV])) | 0.65
C/C=C/C[C@@H](C)[C@@H](O)[C@H]1C(=O)N[C@@H](CC)C(=O)N(C)CC(=O)N(C)CC(=O)N[C@@H](C(C)(C)C)C(=O)N(C)[C@@H](C)C(=O)N[C@@H](CC(C)C)C(=O)N[C@H](C)C(=O)N(C)[C@@H](CC(C)C)C(=O)N(C)[C@@H](CC(C)C)C(=O)N(C)[C@@H](C(C)C)C(=O)N1C [Compound C73] (cyclo([MeBmt][Abu][Sar][Sar][Tle][NMeA]L[dA][NMeL][NMeL][NMeV])) | 0.01
C/C=C/C[C@@H](C)[C@@H](O)[C@H]1C(=O)N[C@@H](CC)C(=O)N(C)CC(=O)N(C)[C@@H](CCCC)C(=O)N[C@@H](CC(C)C)C(=O)N(C)[C@@H](CC(C)C)C(=O)N[C@@H](CC(C)C)C(=O)N[C@H](C)C(=O)N(C)[C@@H](CC(C)C)C(=O)N(C)[C@@H](CC(C)C)C(=O)N(C)[C@@H](C(C)C)C(=O)N1C [Compound C68] (cyclo([MeBmt][Abu][Sar][NMeNle]L[NMeL]L[dA][NMeL][NMeL][NMeV])) | 20.46
